- PROTOCOL DESCRIPTION: qHTS RealTime-Glo MT Cell Viability Assay in HEK293 cells - 16 hour (AID 1224872); also: top concentration of the series differs between compounds; % is scaled to controls: 0 for no effect and ±100 for the full control effect; nearly all actives have a fitted effect of over 50% in size
- SETUP CONDITIONS: RealTime-Glo luminescence; series mostly up to 76.8 µM
Results filed as inconclusive are left out. Activity calls are given as the source filed them. Calls follow the shape of the dose curve; as a rule, active = well fitted cell-killing curve with a large enough effect in the repeat runs; inconclusive = weak or mixed curves, or effect the other way; inactive = flat fitted curve, though single readings scatter.
ATTRIBUTE MEASURED: activity change, negative = cytotoxicity

molecule=CCCn1cc[n+](C)c1C attribute_measured="activity change, negative = cytotoxicity" assay_result=inactive
molecule="CNCC(O)c1ccc(O)c(O)c1 (stereo not drawn)" attribute_measured="activity change, negative = cytotoxicity" assay_result=inactive
molecule="COc1ccccc1OCC1CNC(=O)O1 (stereo not drawn)" attribute_measured="activity change, negative = cytotoxicity" assay_result=inactive
molecule=CCCCCCCCCCOc1cc2c(=O)c(C(=O)OCC)c[nH]c2cc1OCC attribute_measured="activity change, negative = cytotoxicity" assay_result="-0.329% [at 6.97 µM] (inactive)"
molecule=O=[N+]([O-])c1ccc(/C=N\O)o1 attribute_measured="activity change, negative = cytotoxicity" assay_result=inactive
molecule="CCC(C)(CN(C)C)OC(=O)c1ccccc1 (stereo not drawn)" attribute_measured="activity change, negative = cytotoxicity" assay_result=inactive
molecule=CCCCN(CCC(=O)OCC)C(C)=O attribute_measured="activity change, negative = cytotoxicity" assay_result=inactive
molecule=O=Cc1cccc(Br)c1 attribute_measured="activity change, negative = cytotoxicity" assay_result=inactive

---

- PROTOCOL DESCRIPTION: A CellTox Green Cytotoxicity Assay to monitor cytotoxicity in HEK293 cells - 24 hour (AID 1224875); also: % is scaled to controls: 0 for no effect and ±100 for the full control effect; nearly all actives have a fitted effect of over 45% in size
- SETUP CONDITIONS: CellTox Green fluorescence, stronger effect = higher value; series mostly up to 76.8 µM
Results filed as inconclusive are left out. Active and inactive are the calls of the source. The call rests on the fitted dose curve; in most records, active means well fitted activation curve with a large enough effect in the repeat runs; inconclusive means weak or mixed curves; inactive means flat fitted curve, though single readings scatter.
ATTRIBUTE MEASURED: activity change

compound=Clc1cc(Cl)cc(Cl)c1 attribute_measured="activity change" assay_result=inactive
compound=CCNS(=O)(=O)c1ccc(C)cc1 attribute_measured="activity change" assay_result=inactive
compound=O=CN(CCO)CCO attribute_measured="activity change" assay_result=inactive
compound=Nc1ccccn1 attribute_measured="activity change" assay_result=inactive
compound=CCOc1ccccc1OCC attribute_measured="activity change" assay_result=inactive
compound=O=C(O)CNC(=O)c1ccccc1 attribute_measured="activity change" assay_result=inactive
compound="CNCC(O)c1ccc(O)c(O)c1 (stereo not drawn)" attribute_measured="activity change" assay_result=inactive
compound=O=C1c2ccccc2C(=O)c2cc(O)ccc21 attribute_measured="activity change" assay_result=inactive
compound=CCCCCCCCCCCCCCC(=O)O attribute_measured="activity change" assay_result=inactive
compound=CC1=NS(=O)(=O)c2cc(Cl)ccc2N1 attribute_measured="activity change" assay_result=inactive
compound=CC(CO)(CO)[N+](=O)[O-] attribute_measured="activity change" assay_result=inactive
compound=CC(C)c1ccc2ncccc2c1 attribute_measured="activity change" assay_result=inactive
compound="C[N+]1(C)CCCC(OC(=O)C(O)(c2ccccc2)c2ccccc2)C1 (stereo not drawn)" attribute_measured="activity change" assay_result=inactive
compound=[O-][n+]1cccc(CO)c1 attribute_measured="activity change" assay_result=inactive
compound=Cc1ccc(-c2ncc(Cl)cc2-c2ccc(S(C)(=O)=O)cc2)cn1 attribute_measured="activity change" assay_result=inactive
compound=OCCCCCO attribute_measured="activity change" assay_result=inactive
compound=CCOC(=O)C1=NOC(c2ccccc2)(c2ccccc2)C1 attribute_measured="activity change" assay_result=inactive
compound=CCCOC(=O)CC attribute_measured="activity change" assay_result=inactive
compound=CC(=O)c1ccc2ccccc2c1 attribute_measured="activity change" assay_result=inactive
compound=CC[C@H]1OC(=O)[C@H](C)[C@@H](O[C@H]2C[C@@](C)(OC)[C@@H](O)[C@H](C)O2)[C@H](C)[C@@H](O[C@@H]2O[C@H](C)C[C@H](N(C)C)[C@H]2O)[C@](C)(OC)C[C@@H](C)C(=O)[C@H](C)[C@@H](O)[C@]1(C)O attribute_measured="activity change" assay_result=inactive
compound=COCCOCC(OC)OC attribute_measured="activity change" assay_result=inactive
compound=OCCc1ccccn1 attribute_measured="activity change" assay_result=inactive
compound=COc1cc(C)nc(-n2nc(C)cc2OC)n1 attribute_measured="activity change" assay_result=inactive
compound="CC1=NN(c2cc(S(=O)(=O)O)ccc2Cl)C(=O)C1N=Nc1ccccc1 (stereo not drawn)" attribute_measured="activity change" assay_result=inactive
compound=CC(C)(CCC(=O)O)C(=O)O attribute_measured="activity change" assay_result=inactive
compound="C[N+]1(CC2COC(c3ccccc3)(c3ccccc3)O2)CCCCC1 (stereo not drawn)" attribute_measured="activity change" assay_result="-7.42% [at 15.8 µM] (inactive)"
compound="NCCCC(N)(C(=O)O)C(F)F (stereo not drawn)" attribute_measured="activity change" assay_result=inactive
compound=O=C(O)CCCC[P+](c1ccccc1)(c1ccccc1)c1ccccc1 attribute_measured="activity change" assay_result=inactive

---

- PROTOCOL DESCRIPTION: qHTS assay to identify small molecule agonists of the estrogen receptor alpha (ER-alpha) signaling pathway in the presence of an antagonist - cell viability counter screen (AID 1259386);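 also: cells exposed to compounds for 22 h at 37 °C before the viability read; % is scaled to controls: 0 for no effect and ±100 for the full control effect; nearly all actives have a fitted effect of over 30% in size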
- SETUP CONDITIONS: VM7Luc4E2 viability, CellTiter-Fluor fluorescence, 22 h; series mostly up to 92.4 µM
Records with an inconclusive call do not appear. The source made the active and inactive calls. Calls follow the shape of the dose curve; as a rule, active = well fitted cell-killing curve with a large enough effect in the repeat runs; inconclusive = weak or mixed curves, or effect the other way; inactive = no such curve, though single readings can be large or run the other way.
ATTRIBUTE MEASURED: activity change, negative = cytotoxicity

molecule=CCCCCCCCCCCCCCCCCCO assay_result=inactive
molecule="NC(=O)NC1N=C([O][Al])NC1=O (stereo not drawn)" assay_result=inactive
molecule=CCCc1nn(C)c2c(=O)[nH]c(-c3cc(S(=O)(=O)N4CCN(C)CC4)ccc3OCC)nc12 assay_result=inactive
molecule=CCOc1ccccc1OCC assay_result=inactive
molecule=CCOC(=O)C(=O)CCCCCCl assay_result=inactive
molecule=CC(C)(CCC(=O)O)C(=O)O assay_result=inactive
molecule="C[C@H]1[C@H](NC(=O)/C(=N/OC(C)(C)C(=O)O)c2csc(N)n2)C(=O)N1S(=O)(=O)O (stereo in doubt)" assay_result=inactive
molecule="C=COC(=O)C(C)(CC)CCC(C)C (stereo not drawn)" assay_result=inactive
molecule=Nc1c2c(nc3c1CCC3)CCCC2 assay_result=inactive
molecule=CC1=NS(=O)(=O)c2cc(Cl)ccc2N1 assay_result=inactive
molecule=O=C(CO)[C@@H](O)[C@H](O)[C@H](O)CO assay_result=inactive
molecule=COc1cc(C)nc(-n2nc(C)cc2OC)n1 assay_result=inactive
molecule=O=CN(CCO)CCO assay_result=inactive

---

- PROTOCOL DESCRIPTION: qHTS assay to identify small molecule agonists of the endoplasmic reticulum stress response signaling pathway - cell viability counter screen (AID 1159517);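 also: HeLa cells carrying an ER stress response element beta-lactamase reporter; % is scaled to controls: 0 for no effect and ±100 for the full control effect; nearly all actives have a fitted effect of over 50% in size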
- SETUP CONDITIONS: ESRE-bla HeLa viability, CellTiter-Glo luminescence, 5 h; series mostly up to 61 µM
Results filed as inconclusive are left out. Active and inactive are the calls of the source. Calls come from the whole dose curve.
ATTRIBUTE MEASURED: activity change, negative = cytotoxicity

compound=Clc1cc(Cl)c(Cl)nc1Cl assay_result=inactive
compound=CCN(CC#N)c1cccc(C)c1 assay_result=inactive
compound=C[N+](C)(C)CCCCCCCCCC[N+](C)(C)C assay_result=inactive
compound=Cc1ccc(C(=O)Nc2ccc(S(=O)(=O)O)c3cc(S(=O)(=O)O)cc(S(=O)(=O)O)c23)cc1NC(=O)c1cccc(NC(=O)Nc2cccc(C(=O)Nc3cc(C(=O)Nc4ccc(S(=O)(=O)O)c5cc(S(=O)(=O)O)cc(S(=O)(=O)O)c45)ccc3C)c2)c1 assay_result=inactive
compound="CC(C(=O)O)c1cccc(Oc2ccccc2)c1 (stereo not given)" assay_result=inactive
compound=CCCCCCCCCCOc1cc2c(=O)c(C(=O)OCC)c[nH]c2cc1OCC assay_result="-7.49% [at 6.95 µM] (inactive)"
compound="C[N+]1(CC2COC(c3ccccc3)(c3ccccc3)O2)CCCCC1 (stereo not given)" assay_result=inactive
compound="O=C1NC(=O)C2CC=CCC12 (stereo not given)" assay_result=inactive
compound="CCN[C@@H]1C[C@H](N)[C@@H](OC2OC(CN)=CCC2N)[C@H](O)[C@H]1O[C@H]1OC[C@](C)(O)[C@H](NC)[C@H]1O (stereo not given in full)" assay_result="-1.46% [at 0.628 µM] (inactive)"
compound=CNC(=O)Nc1ccc(Cl)c(Cl)c1 assay_result=inactive

---

- TEST SYSTEM: Cytochrome P450 2C19 (Homo sapiens) (UniProt P33261)
- Sequence (P33261 whole entry, looked up): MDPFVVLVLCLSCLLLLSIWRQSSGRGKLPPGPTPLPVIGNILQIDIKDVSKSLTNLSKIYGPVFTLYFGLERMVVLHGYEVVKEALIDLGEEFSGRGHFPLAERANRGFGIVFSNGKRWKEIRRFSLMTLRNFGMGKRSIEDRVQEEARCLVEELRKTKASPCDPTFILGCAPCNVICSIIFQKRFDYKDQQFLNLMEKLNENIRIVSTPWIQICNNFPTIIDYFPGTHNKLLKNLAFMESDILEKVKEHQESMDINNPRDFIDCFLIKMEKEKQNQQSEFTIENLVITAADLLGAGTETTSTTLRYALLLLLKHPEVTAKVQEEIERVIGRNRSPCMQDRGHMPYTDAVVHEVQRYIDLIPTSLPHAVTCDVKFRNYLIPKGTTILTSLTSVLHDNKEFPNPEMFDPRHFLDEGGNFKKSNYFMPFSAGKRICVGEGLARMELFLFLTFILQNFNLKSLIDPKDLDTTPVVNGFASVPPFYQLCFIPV
- PROTOCOL DESCRIPTION: Cytochrome P450 Family 2 Subfamily C Member 19 (CYP2C19) small molecule antagonists: luciferase reporter qHTS assay (AID 1671197); also: nearly all actives have a fitted effect of over 65% in size
- SETUP CONDITIONS: P450-Glo CYP2C19 enzyme, luciferin luminescence, 1 h; series mostly up to 52.9 µM
Results filed as inconclusive are left out. Activity calls are given as the source filed them. The call rests on the fitted dose curve; in most records, active means well fitted inhibition curve with a large enough effect in the repeat runs; inconclusive means weak or mixed curves; inactive means no such curve, though single readings can be large or run the other way.
Labels: true = active, false = inactive

compound=CCOC(=O)C1=NOC(c2ccccc2)(c2ccccc2)C1 test_system="Cytochrome P450 2C19 (Homo sapiens) (UniProt P33261)" class_assignment=true
compound=CC(=O)N[C@H]1[C@H]([C@H](O)[C@H](O)CO)OC(C(=O)O)=C[C@@H]1N=C(N)N test_system="Cytochrome P450 2C19 (Homo sapiens) (UniProt P33261)" class_assignment=false
compound=O=C(CO)[C@@H](O)[C@H](O)[C@H](O)CO test_system="Cytochrome P450 2C19 (Homo sapiens) (UniProt P33261)" class_assignment=false
compound="C=C(C)C(=O)OCC1CCCO1 (configuration not stated)" test_system="Cytochrome P450 2C19 (Homo sapiens) (UniProt P33261)" class_assignment=false
compound=CC1(C)OC[C@@H](COC(=O)CCc2ccc(OC[C@@H](O)CNCCNC(=O)N3CCOCC3)cc2)O1 test_system="Cytochrome P450 2C19 (Homo sapiens) (UniProt P33261)" class_assignment=false
compound=O=C(O)Cc1csc(-c2ccc(Cl)cc2)n1 test_system="Cytochrome P450 2C19 (Homo sapiens) (UniProt P33261)" class_assignment=false
compound=C[C@H]1C[C@H]2[C@@H]3CCC4=CC(=O)C=C[C@]4(C)[C@H]3C(=O)C[C@]2(C)[C@@]1(O)C(=O)CO test_system="Cytochrome P450 2C19 (Homo sapiens) (UniProt P33261)" class_assignment=false
compound=CC(=O)c1ccccc1[N+](=O)[O-] test_system="Cytochrome P450 2C19 (Homo sapiens) (UniProt P33261)" class_assignment=false
compound="C[N+]12CCC(CC1)C(OC(=O)C(O)(c1ccccc1)c1ccccc1)C2 (configuration not stated)" test_system="Cytochrome P450 2C19 (Homo sapiens) (UniProt P33261)" class_assignment=false
compound=CC(=O)Oc1cccc(C)c1 test_system="Cytochrome P450 2C19 (Homo sapiens) (UniProt P33261)" class_assignment=false
compound=COCCOCC(OC)OC test_system="Cytochrome P450 2C19 (Homo sapiens) (UniProt P33261)" class_assignment=false
compound=Cc1nc(C2CCCCC2)c(-c2ccc(S(N)(=O)=O)c(F)c2)o1 test_system="Cytochrome P450 2C19 (Homo sapiens) (UniProt P33261)" class_assignment=true
